Target: T1, mouse tissue factor pathway inhibitor (TFPI) (mouse, UniProt O54819 29-289, limits assumed)
T1 construct: bought; also called mTFPI; murine TFPI
T1 sequence (looked up): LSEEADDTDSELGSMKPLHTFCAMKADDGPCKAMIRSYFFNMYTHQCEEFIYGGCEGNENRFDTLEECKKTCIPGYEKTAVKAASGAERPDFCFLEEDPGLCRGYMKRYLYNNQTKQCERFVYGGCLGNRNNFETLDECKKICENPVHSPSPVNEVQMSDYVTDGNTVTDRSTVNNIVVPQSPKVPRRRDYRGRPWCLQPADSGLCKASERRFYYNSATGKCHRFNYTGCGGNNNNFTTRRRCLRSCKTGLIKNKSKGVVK
Test: competitive ELISA
// values below are reported variant/HC_D62R
Give the number; ratio is assumed, so skip it.

[[record]]
binder = "4B7 HC Q1E+N32D+G44S+K55Y+D62R+Y112D/LC S32R+D33F+N35I+D97T (Fab, V domains shown) VH: EVQLQQSGPGLVKPSQTLSLTCAISGDSVSSDSAAWSWIRQSPSRGLEWLGIIYYRSKWYNRYAVSVKSRITINPDTSKNQFSLQLNSVTPEDTAVYYCARWHSDKHWGFDDWGQGTLVTVSS VL: DIVMTQSPLSLPVTPGEPASISCRSSQSLVFRFGITYLNWYLQKPGQSPQLLIYKGSNRASGVPDRFSGSGSGTDFTLKISRVEAEDVGVYYCQQYTSYPLTFGQGTKVEIKR"
endpoint_label = "variant/HC_D62R"
val = 45.1


Alright, here's another binder for you.
I have this binder here, 4B7 HC D62R+H107M+Y112D/LC F31I+S32R+D33F+N35I+D97T (Fab, V domains shown) VH: QVQLQQSGPGLVKPSQTLSLTCAISGDSVSSNSAAWSWIRQSPGRGLEWLGIIYKRSKWYNRYAVSVKSRITINPDTSKNQFSLQLNSVTPEDTAVYYCARWHSDKMWGFDDWGQGTLVTVSS VL: DIVMTQSPLSLPVTPGEPASISCRSSQSLVIRFGITYLNWYLQKPGQSPQLLIYKGSNRASGVPDRFSGSGSGTDFTLKISRVEAEDVGVYYCQQYTSYPLTFGQGTKVEIKR , and I need its recorded variant/HC_D62R. 18.2
